- Assay System: SMARCA2 (Homo sapiens)
- Construct: endogenous in cells; host or cells: HT1080 (CRISPR HiBiT knock-in clone, generated in house)
- Sequence (P51531 whole entry): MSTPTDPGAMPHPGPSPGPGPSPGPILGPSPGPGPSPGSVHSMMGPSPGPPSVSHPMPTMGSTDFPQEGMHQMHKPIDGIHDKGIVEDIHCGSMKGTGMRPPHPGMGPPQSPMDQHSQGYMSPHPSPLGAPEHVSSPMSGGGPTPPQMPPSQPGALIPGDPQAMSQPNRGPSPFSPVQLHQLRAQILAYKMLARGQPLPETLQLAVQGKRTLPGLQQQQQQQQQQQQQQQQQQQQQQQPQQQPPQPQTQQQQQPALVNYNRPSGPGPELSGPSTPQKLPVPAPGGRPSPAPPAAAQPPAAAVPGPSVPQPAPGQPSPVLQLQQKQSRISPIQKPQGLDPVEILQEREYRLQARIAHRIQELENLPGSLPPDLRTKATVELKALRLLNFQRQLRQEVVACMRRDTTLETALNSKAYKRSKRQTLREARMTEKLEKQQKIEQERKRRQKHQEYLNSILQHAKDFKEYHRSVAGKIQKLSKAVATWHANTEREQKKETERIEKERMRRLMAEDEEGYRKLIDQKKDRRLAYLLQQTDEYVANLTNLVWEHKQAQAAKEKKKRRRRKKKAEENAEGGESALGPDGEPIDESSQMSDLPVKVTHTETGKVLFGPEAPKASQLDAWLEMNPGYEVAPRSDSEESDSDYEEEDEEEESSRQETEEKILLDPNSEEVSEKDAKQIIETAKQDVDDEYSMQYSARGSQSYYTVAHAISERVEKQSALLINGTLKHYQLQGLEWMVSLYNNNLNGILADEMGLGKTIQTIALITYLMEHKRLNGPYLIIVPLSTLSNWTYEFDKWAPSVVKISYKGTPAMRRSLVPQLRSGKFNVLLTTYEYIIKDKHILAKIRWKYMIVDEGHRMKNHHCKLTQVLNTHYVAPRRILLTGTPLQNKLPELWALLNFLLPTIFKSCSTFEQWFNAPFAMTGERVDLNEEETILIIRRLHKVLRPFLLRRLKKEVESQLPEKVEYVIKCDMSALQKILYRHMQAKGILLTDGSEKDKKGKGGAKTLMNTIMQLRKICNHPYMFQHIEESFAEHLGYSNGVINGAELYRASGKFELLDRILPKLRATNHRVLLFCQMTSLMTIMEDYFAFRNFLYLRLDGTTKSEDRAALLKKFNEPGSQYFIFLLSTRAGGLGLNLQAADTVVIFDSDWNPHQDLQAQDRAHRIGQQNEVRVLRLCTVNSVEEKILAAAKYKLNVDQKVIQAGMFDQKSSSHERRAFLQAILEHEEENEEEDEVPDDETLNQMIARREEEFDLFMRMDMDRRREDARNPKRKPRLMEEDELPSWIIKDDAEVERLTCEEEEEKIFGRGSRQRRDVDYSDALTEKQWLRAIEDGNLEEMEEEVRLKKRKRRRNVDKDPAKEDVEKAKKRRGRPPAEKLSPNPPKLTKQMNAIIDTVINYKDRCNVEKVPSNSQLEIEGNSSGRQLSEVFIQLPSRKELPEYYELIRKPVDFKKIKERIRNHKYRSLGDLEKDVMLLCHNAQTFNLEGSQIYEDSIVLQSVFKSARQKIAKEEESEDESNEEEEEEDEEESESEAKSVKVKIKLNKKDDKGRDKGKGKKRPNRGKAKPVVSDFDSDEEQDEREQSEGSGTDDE
- Experiment Notes: SMARCA2 HiBiT degradation assay (cellular)
- Type: cell-based
- Experimental Conditions: A549, 6 h incubation; Emax = amount of residual protein remaining in the cell following compound treatment; table head names A549
Assay Metric: Emax (%)

* Nc1nnc(-c2ccccc2O)cc1N1CC2CCC(C1)N2c1cccc(CN2CCC(C(=O)NC3CN(c4ccc5c(c4)C(=O)N(C4CCC(=O)NC4=O)C5=O)C3)CC2)c1 (racemic) [Example 134] | 36
* Nc1nnc(-c2ccccc2O)cc1OCC(CNC(=O)C1CCN(c2ccc3c(c2)C(=O)N(C2CCC(=O)NC2=O)C3=O)CC1)c1ccccc1 (racemic) [Example 97] | 30
* CC(Oc1cccc2c1C(=O)N(C1CCC(=O)NC1=O)C2=O)c1cn(CCC(=O)N2CCN(CCCN3CCN(c4ccc(N5CCC[C@H](Oc6cc(-c7ccccc7O)nnc6N)C5)cc4)CC3)CC2)nn1 (mixture of isomers) [Example 204] | 39
* Nc1nnc(-c2ccccc2O)cc1N1CCN(c2cccc(OCCN3CCN(C(=O)C4CCN(c5ccc6c(c5)C(=O)N(C5CCC(=O)NC5=O)C6=O)CC4)CC3)c2)C2(CC2)C1 (centres unmarked) [Example 84] | 26
* Nc1nnc(-c2ccccc2O)cc1N1CC2CCC(C1)N2c1cccc(CN2CCN(C(=O)CN3CCN(c4ccc(OC5CCC(=O)NC5=O)cc4)CC3)CC2)c1 (racemic) [Example 195] | 60
* Nc1nnc(-c2ccccc2O)cc1N1CC2CCC(C1)N2c1cccc(OCCN2CCN(C(=O)CNC(=O)C3CCN(c4cccc5c4C(=O)N(C4CCC(=O)NC4=O)C5=O)CC3)CC2)c1 (racemic) [Example 18] | 62
* CC(Oc1cccc2c1C(=O)N(C1CCC(=O)NC1=O)C2=O)c1cn(C2CN(C(=O)CCCCN3CCN(c4ccc(N5CCC[C@H](Oc6cc(-c7ccccc7O)nnc6N)C5)cc4)CC3)C2)nn1 (mixture of isomers) [Example 199] | 62
* Nc1nnc(-c2ccccc2O)cc1N1CC2CCC(C1)N2c1cccc(OCCN2CCN(C(=O)CCC(=O)N3CCC(Oc4cccc5c4C(=O)N(C4CCC(=O)NC4=O)C5=O)CC3)CC2)c1 (racemic) [Example 9] | 58
* Nc1nnc(-c2ccccc2O)cc1OC1CCCN(c2ccc(OCCN3CCN(C(=O)CCCCCCCCn4cc(CNc5cccc6c5C(=O)N(C5CCC(=O)NC5=O)C6=O)nn4)CC3)cc2)C1 (centres unmarked) [Example 27] | 57
* Nc1nnc(-c2ccccc2O)cc1N1CC(Oc2ccc(C(=O)N3CCN(C(=O)C4CCN(c5ccc6c(c5)C(=O)N(C5CCC(=O)NC5=O)C6=O)CC4)CC3)c(C(F)(F)F)c2)C1 (racemic) [Example 132] | 44
* Nc1nnc(-c2ccccc2O)cc1N1CC(Oc2cccc(C(=O)N3CCN(C(=O)CCCCCCNc4cccc5c4C(=O)N(C4CCC(=O)NC4=O)C5=O)CC3)c2)C1 (centres unmarked) [Example 145] | 69
* Nc1nnc(-c2ccccc2O)cc1N1CC(Oc2cccc(CN3CCN(C(=O)C4CCN(c5ccc6c(c5)C(=O)N(C5CCC(=O)NC5=O)C6=O)CC4)CC3)c2)C1 (racemic) [Example 155] | 26
* Nc1nnc(-c2ccccc2O)cc1N1CCC(C(=O)NCC2CCN(CC3CCN(c4ccc5c(c4)C(=O)N(C4CCC(=O)NC4=O)C5=O)CC3)CC2)(c2ccccc2)CC1 (centres unmarked) [Example 100] | 30
* CC(Oc1cccc2c1C(=O)N(C1CCC(=O)NC1=O)C2=O)c1cn(CCCCCCCCCN2CCN(c3ccc(N4CCC[C@H](Oc5cc(-c6ccccc6O)nnc5N)C4)cc3)CC2)nn1 (mixture of isomers) [Example 126] | 26
* Nc1nnc(-c2ccccc2O)cc1N1CCC(C(=O)N2CC3(CN(C(=O)C4CCN(c5ccc6c(c5)C(=O)N(C5CCC(=O)NC5=O)C6=O)CC4)C3)C2)(c2ccccc2)CC1 (centres unmarked) [Example 121] | 26
* Nc1nnc(-c2ccccc2O)cc1N1CCC(C(=O)NCC2CCN(C(=O)CC3CCN(c4ccc5c(c4)C(=O)N(C4CCC(=O)NC4=O)C5=O)CC3)CC2)(c2ccccc2)CC1 (centres unmarked) [Example 103] | 45
* CN(c1cccc2c1C(=O)N(C1CCC(=O)NC1=O)C2=O)C1CCN(C(=O)CCC(=O)N2CCN(CCOc3cccc(N4C5CCC4CN(c4cc(-c6ccccc6O)nnc4N)C5)c3)CC2)CC1 (racemic) [Example 21] | 29
* Nc1nnc(-c2ccccc2O)cc1N1CC2CCC(C1)N2c1cccc(OCCN2CCN(C(=O)CNC(=O)C3CCN(c4ccc5c(c4)C(=O)N(C4CCC(=O)NC4=O)C5=O)CC3)CC2)c1 (racemic) [Example 141] | 19
* Nc1nnc(-c2ccccc2O)cc1OC1CCCN(c2ccc(N3CCN(CCCCCCCCCc4ccnc(CNc5cccc6c5C(=O)N(C5CCC(=O)NC5=O)C6=O)c4)CC3)cc2)C1 (centres unmarked) [Example 139] | 62
* Nc1nnc(-c2ccccc2O)cc1N1CCC(C(=O)N2CC3(CCN(C(=O)CN4CCC(c5ccc(NC6CCC(=O)NC6=O)cc5)CC4)CC3)C2)(c2ccccc2)CC1 (centres unmarked) [Example 165] | 38
